# System: WHIM2 (cells of a triple-negative basal-like breast cancer xenograft)
# Test summary: cell viability (% of vehicle); higher = less cytotoxic
# Applied conditions: 10 µM; 72 h
cell viability values by entry

O=CC(O)C(O)C(O)CO (centres undefined) : 94.5
CNCC(O)c1ccc(O)c(O)c1 (centres undefined) : 102
CC[C@@]1(O)C(=O)OCc2c1cc1n(c2=O)Cc2cc3c(CN(C)C)c(O)ccc3nc2-1.Cl [Topotecan HCl] : 43.7

Here is the next item to consider.
Task: Name the recorded cell viability of the item Cc1nc2n(c(=O)c1CCN1CCC(c3noc4cc(F)ccc34)CC1)CCCC2O (centres undefined) in your answer.
Output: 135

###

# Test system: HCI09 (cells of a triple-negative luminal androgen receptor type breast cancer xenograft)
# Test summary: cell viability (% of vehicle); higher = less cytotoxic
# Applied conditions: 10 µM; 72 h
API: label(entry) gives true (1) if the entry's cell viability is strictly smaller than 90; on equality or larger values it gives false (0).

Cl.O=C1Cc2cc(CCN3CCN(c4nsc5ccccc45)CC3)c(Cl)cc2N1 [Ziprasidone HCl] : true (1)
COc1ccc(C(=O)c2ccccc2)c(O)c1 : false (0)
S=c1nc[nH]c2nc[nH]c12 : false (0)
CC(C)(C)c1ccc(C(O)CCCN2CCC(C(O)(c3ccccc3)c3ccccc3)CC2)cc1 (centres undefined) : true (1)
OC[C@@H](O)[C@@H](O)[C@H](O)[C@H](O)CO : false (0)
NS(=O)(=O)c1cc2c(cc1Cl)NC=NS2(=O)=O [Chlorothiazide] : false (0)
Cl.Nc1ccn(C2OC(CO)C(O)C2O)c(=O)n1 (centres undefined) [Cytarabine hydrochloride] : false (0)

For the next question, use this molecule.
Task: Field: below-cutoff. Rule: recorded cell viability strictly less than 90. Subject: CNCCC(Oc1ccccc1C)c1ccccc1.Cl (centres undefined) [Atomoxetine HCl]
Output: false (0)

###

# Test system: HCI01 (cells of a triple-negative basal-like breast cancer xenograft)
# Test summary: cell viability (% of vehicle); higher = less cytotoxic
# Applied conditions: 10 µM; 72 h
Outcome measure: cell viability
Enter the number alone.

The cases that follow already have their cell viability on record.
NC(N)=Nc1nc(CSCCC(N)=NS(N)(=O)=O)cs1 : 120
Cl.NC(N)=NC(N)=NCCc1ccccc1 [Phenformin HCl] : 117
COC(=O)NC(C(=O)N1CCCC1c1ncc(-c2ccc(-c3ccc(-c4cnc(C5CCCN5C(=O)C(NC(=O)OC)C(C)C)[nH]4)cc3)cc2)[nH]1)C(C)C (centres undefined) : 79.8

Here is the next item to consider.
Task: Name the recorded cell viability of the item CC(CN(C)C)CN1c2ccccc2CCc2ccccc21.O=C(O)/C=C\C(=O)O (centres undefined) [Trimipramine (maleate)] in your answer.
Output: 99.2

###

# System: HCI16 (cells of a triple-negative basal-like breast cancer xenograft)
# Test summary: cell viability (% of vehicle); higher = less cytotoxic
# Applied conditions: 10 µM; 72 h
Outcome measure: cell viability

Task: Name the recorded cell viability of the item Cl.Nc1ccc(N=Nc2ccccc2)c(N)n1 [Phenazopyridine HCl] in your answer.
Output: 200

Task: Name the recorded cell viability of the item CC1CCN(C(=O)CC#N)CC1N(C)c1ncnc2[nH]ccc12.O=C(O)CC(O)(CC(=O)O)C(=O)O (centres undefined) in your answer.
Output: 141

Task: Name the recorded cell viability of the item `CS(=O)(=O)O.N#CC1(c2ccc(NC(=O)c3cccnc3NCc3ccncc3)cc2)CCCC1` in your answer.
Output: 119

Task: Name the recorded cell viability of the item `COc1cc(C(C)=O)ccc1OCCCN1CCC(c2noc3cc(F)ccc23)CC1` in your answer.
Output: 172

Task: Name the recorded cell viability of the item O=C1OC(C(O)CO)C(O)=C1O (centres undefined) in your answer.
Output: 108

Task: Name the recorded cell viability of the item CC12CCC3c4ccc(O)cc4CCC3C1CCC2=O (centres undefined) in your answer.
Output: 89.5

Task: Name the recorded cell viability of the item CN1CCCC(n2nc(Cc3ccc(Cl)cc3)c3ccccc3c2=O)CC1.Cl (centres undefined) [Azelastine HCl] in your answer.
Output: 116

Task: Name the recorded cell viability of the item Nc1ncn(C2CC(O)C(CO)O2)c(=O)n1 (centres undefined) in your answer.
Output: 123

Task: Name the recorded cell viability of the item CS(=O)(=O)c1ccc(C(O)C(CO)NC(=O)C(Cl)Cl)cc1 (centres undefined) in your answer.
Output: 103

###

# Tested on: HCI09
# Test summary: cell viability (% of vehicle); higher = less cytotoxic
# Applied conditions: 10 µM; 72 h
API: label(entry) gives 1.0 if the entry's cell viability is strictly smaller than 80; on equality or larger values it gives 0.0.

Observe how each entry below is paired with its result.
N.N.[Cl][Pt+2][Cl] [Cisplatin] : 1.0
O=C(Nc1c(Cl)cncc1Cl)c1ccc(OC(F)F)c(OCC2CC2)c1 : 0.0
COc1ccc2c(c1)C(=O)N(CCc1ccc(S(=O)(=O)NC(=O)NC3CCCCC3)cc1)C(=O)C2(C)C : 1.0
CN1CCN(c2c(F)cc3c(=O)c(C(=O)O)cn4c3c2OCN4C)CC1 : 1.0

For the next question, use this compound.
Task: Field: below-cutoff. Rule: recorded cell viability strictly less than 80. Subject: Cl.Cl.Clc1ccc(Nc2nnc(Cc3ccncc3)c3ccccc23)cc1 [Vatalanib (PTK787) 2HCl]
Output: 1.0

###

# Tested on: HCI13 (cells of an ER-positive luminal breast cancer xenograft)
# Test summary: cell viability (% of vehicle); higher = less cytotoxic
# Applied conditions: 10 µM; 72 h
API: label(entry) gives Y if the entry's cell viability is strictly smaller than 100; on equality or larger values it gives N.

Observe how each entry below is paired with its result.
CCCCC1C(=O)N(c2ccccc2)N(c2ccccc2)C1=O : N
COC1=CC(=O)C[C@@H](C)[C@]12Oc1c(Cl)c(OC)cc(OC)c1C2=O : N
CC1CNCCCN1S(=O)(=O)c1cccc2cncc(F)c12.Cl.O.O (configuration not stated) : Y

Task: Field: below-cutoff. Rule: recorded cell viability strictly less than 100. Subject: CCCCC(C)(O)C/C=C/[C@H]1[C@H](O)CC(=O)[C@@H]1CCCCCCC(=O)OC (mixture of isomers)
Output: N

###

# System: HCI03 (cells of an ER-positive luminal breast cancer xenograft)
# Test summary: cell viability (% of vehicle); higher = less cytotoxic
# Applied conditions: 10 µM; 72 h
Outcome measure: cell viability
Enter the number alone.

Cc1ccc(-c2ncc(Cl)cc2-c2ccc(S(C)(=O)=O)cc2)cn1 [Etoricoxib] : 118
Cl.NC(N)=NC(=O)c1nc(Cl)c(N)nc1N.O.O [Amiloride HCl dihydrate] : 102
C#CC1(O)CCC2C3CCc4cc(O)ccc4C3CCC21C (configuration not stated) [Ethinyl Estradiol] : 119
OC[C@@H](O)[C@@H](O)[C@H](O)[C@@H](O)CO [D-Sorbitol] : 118

Task: Recall the reported cell viability of CN(C)CC=CC(=O)Nc1cc2c(Nc3ccc(F)c(Cl)c3)ncnc2cc1OC1CCOC1.O=C(O)C=CC(=O)O.O=C(O)C=CC(=O)O (configuration not stated) [Afatinib dimaleate] when tested on HCI03.
Output: 53.8

Task: Recall the reported cell viability of Cc1ncc(C[n+]2csc(CCO)c2C)c(N)n1.Cl.[Cl-] [Thiamine HCl (Vitamin B1)] when tested on HCI03.
Output: 143

Task: Recall the reported cell viability of Cc1cc(C)c2c(c1)C(N(Cc1cc(C(F)(F)F)cc(C(F)(F)F)c1)c1nnn(C)n1)CCCN2CC1CCC(C(=O)O)CC1 (configuration not stated) when tested on HCI03.
Output: 135

###

# Test system: HCI01
# Test summary: cell viability of combination (% of vehicle); higher = less cytotoxic
# Applied conditions: 1 µM; 72 h; partner dose: 10 nM
Outcome measure: cell viability of combination
Enter the number alone.

The cases that follow already have their cell viability of combination on record.
CC(C)(C)NC(=O)C1CC2CCCCC2CN1CC(O)C(Cc1ccccc1)NC(=O)C(CC(N)=O)NC(=O)c1ccc2ccccc2n1.CS(=O)(=O)O (configuration not stated) [Saquinavir mesylate] + CN(C)C/C=C/C(=O)Nc1cc2c(Nc3ccc(F)c(Cl)c3)ncnc2cc1O[C@H]1CCOC1 : 48.2
CCc1oc2ccccc2c1C(=O)c1cc(Br)c(O)c(Br)c1 [Benzbromarone] + CN(C)C/C=C/C(=O)Nc1cc2c(Nc3ccc(F)c(Cl)c3)ncnc2cc1O[C@H]1CCOC1 : 56.3
CC(C)COc1ccc(CNC(=O)N(Cc2ccc(F)cc2)C2CCN(C)CC2)cc1 [Pimavanserin] + CN(C)C/C=C/C(=O)Nc1cc2c(Nc3ccc(F)c(Cl)c3)ncnc2cc1O[C@H]1CCOC1 : 52.8
COC(=O)NC(C(=O)N1CCCC1c1ncc(-c2ccc(-c3ccc(-c4cnc(C5CCCN5C(=O)C(NC(=O)OC)C(C)C)[nH]4)cc3)cc2)[nH]1)C(C)C (configuration not stated) + CN(C)C/C=C/C(=O)Nc1cc2c(Nc3ccc(F)c(Cl)c3)ncnc2cc1O[C@H]1CCOC1 : 48.3
CCOc1cc2ncc(C#N)c(Nc3ccc(F)c(Cl)c3)c2cc1NC(=O)C=CCN(C)C [Pelitinib (EKB-569)] + CN(C)C/C=C/C(=O)Nc1cc2c(Nc3ccc(F)c(Cl)c3)ncnc2cc1O[C@H]1CCOC1 : 72.1

Here is the next item to consider.
Task: Name the recorded cell viability of combination of the item CC(C)C[C@H](NC(=O)[C@H](Cc1ccccc1)NC(=O)c1cnccn1)B(O)O [Bortezomib] + CN(C)C/C=C/C(=O)Nc1cc2c(Nc3ccc(F)c(Cl)c3)ncnc2cc1O[C@H]1CCOC1 in your answer.
Output: 22.5
